Data provenance is patent US20220064302A1.

# target-entity: PD-1 expressed on cells (human, UniProt Q15116 25-288)
# Sequence (Q15116 25-288 limits assumed): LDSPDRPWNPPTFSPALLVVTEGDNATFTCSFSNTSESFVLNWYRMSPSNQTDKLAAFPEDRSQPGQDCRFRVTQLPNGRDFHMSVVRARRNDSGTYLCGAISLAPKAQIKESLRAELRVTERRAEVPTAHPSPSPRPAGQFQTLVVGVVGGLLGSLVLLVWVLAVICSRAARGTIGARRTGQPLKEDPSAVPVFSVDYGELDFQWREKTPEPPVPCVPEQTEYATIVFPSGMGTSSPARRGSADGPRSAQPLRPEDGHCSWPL
# experimental-details: cell-based or functional assay
Readings of PD-1/PD-L1 blockage (IC50, µg/ml) for the listed binders
Report the value in µg/mL with no unit label.

{"binder": "A5 (antibody, V domains shown, Tested as full-length mAb expressed in CHO cells; also called antibody A5; L5H5) VH: QVQLVESGGGVVQPGRSLRLSCAASGFTFSNYGTHWVRQAPGKGLEWVAVIWYDGSNKYYADSVKGRFTISRDNSKNTLYLQMNSLRAEDTAVYYCARDRIYCSSTRCIGFGYYYYGMDVWGQGTTVTVSS VL: AIQLTQSPSSLSASVGDRVTITCRASQGISSALAWYQQKPGKAPKLLIYDASSLESGVPSRFSGSGSGTDFTLTISSLQPEDFATYYCQQFNNYPWTFGQGTKVEIKR", "reported": 1.31}
{"binder": "A26 (antibody, V domains shown, Tested as full-length mAb expressed in CHO cells; also called antibody 26; L26H26) VH: QVQLVESGGGVVQPGRSLRLSCAASGFTFSDYGMHWVRQAPGKGLEWVAVIWYDGSNKYYTDSVKGRFTISRDNSKNTLYLQMSSLRAEDAAVYYCAVNPFDYWGQGTLVTVSS VL: DIQMTQSPSSLSASVGDRVTISCRASQGISNYLAWYQQKPGKVPKVLIYGASTLQSGVPSRFSGSGSGTDFTLTISSLQPEDVATYYCQKYNSAPYTFGQGTKLEIK", "reported": 0.641}

Now for another entry.
Challenge: Consider the binder A10 (antibody, V domains shown, Tested as full-length mAb expressed in CHO cells; also called antibody A10; L10H10) VH: QVQLVQSGAEVKKPGASVKVSCKASGYTFAIYGISWVRQAPGQGLEWMGWISAYSDNSNYAQKLQGRVTMTTDTSTSTAYMELRSLRSDDTAVYYCVRDGSHGDYYYGMDVWGQGTTVTVSS VL: DIQMTQSPSSLSASVGDRVTITCRASQGISSWLAWYQQKPEKAPKSLIYAASSLQSGVPSRFSGSGSGTDFTLTISSLQPEDFATYYCQQYNSYPYTFGQGTKLEIK and give its measured PD-1/PD-L1 blockage (IC50, µg/ml).
Response given: 1.64
